The origin of these recorded values is patent US20220211692A1.

Molecular target: F508del/F508del CFTR (Homo sapiens, UniProt P13569, DEL508-508)
Construct: cells isolated from CF patients with the homozygous mutation; endogenous in cells; host or cells: primary human bronchial epithelial (hBE) cells from CF patients homozygous for F508del
Sequence (P13569 with tags, fused parts or gaps DEL508-508): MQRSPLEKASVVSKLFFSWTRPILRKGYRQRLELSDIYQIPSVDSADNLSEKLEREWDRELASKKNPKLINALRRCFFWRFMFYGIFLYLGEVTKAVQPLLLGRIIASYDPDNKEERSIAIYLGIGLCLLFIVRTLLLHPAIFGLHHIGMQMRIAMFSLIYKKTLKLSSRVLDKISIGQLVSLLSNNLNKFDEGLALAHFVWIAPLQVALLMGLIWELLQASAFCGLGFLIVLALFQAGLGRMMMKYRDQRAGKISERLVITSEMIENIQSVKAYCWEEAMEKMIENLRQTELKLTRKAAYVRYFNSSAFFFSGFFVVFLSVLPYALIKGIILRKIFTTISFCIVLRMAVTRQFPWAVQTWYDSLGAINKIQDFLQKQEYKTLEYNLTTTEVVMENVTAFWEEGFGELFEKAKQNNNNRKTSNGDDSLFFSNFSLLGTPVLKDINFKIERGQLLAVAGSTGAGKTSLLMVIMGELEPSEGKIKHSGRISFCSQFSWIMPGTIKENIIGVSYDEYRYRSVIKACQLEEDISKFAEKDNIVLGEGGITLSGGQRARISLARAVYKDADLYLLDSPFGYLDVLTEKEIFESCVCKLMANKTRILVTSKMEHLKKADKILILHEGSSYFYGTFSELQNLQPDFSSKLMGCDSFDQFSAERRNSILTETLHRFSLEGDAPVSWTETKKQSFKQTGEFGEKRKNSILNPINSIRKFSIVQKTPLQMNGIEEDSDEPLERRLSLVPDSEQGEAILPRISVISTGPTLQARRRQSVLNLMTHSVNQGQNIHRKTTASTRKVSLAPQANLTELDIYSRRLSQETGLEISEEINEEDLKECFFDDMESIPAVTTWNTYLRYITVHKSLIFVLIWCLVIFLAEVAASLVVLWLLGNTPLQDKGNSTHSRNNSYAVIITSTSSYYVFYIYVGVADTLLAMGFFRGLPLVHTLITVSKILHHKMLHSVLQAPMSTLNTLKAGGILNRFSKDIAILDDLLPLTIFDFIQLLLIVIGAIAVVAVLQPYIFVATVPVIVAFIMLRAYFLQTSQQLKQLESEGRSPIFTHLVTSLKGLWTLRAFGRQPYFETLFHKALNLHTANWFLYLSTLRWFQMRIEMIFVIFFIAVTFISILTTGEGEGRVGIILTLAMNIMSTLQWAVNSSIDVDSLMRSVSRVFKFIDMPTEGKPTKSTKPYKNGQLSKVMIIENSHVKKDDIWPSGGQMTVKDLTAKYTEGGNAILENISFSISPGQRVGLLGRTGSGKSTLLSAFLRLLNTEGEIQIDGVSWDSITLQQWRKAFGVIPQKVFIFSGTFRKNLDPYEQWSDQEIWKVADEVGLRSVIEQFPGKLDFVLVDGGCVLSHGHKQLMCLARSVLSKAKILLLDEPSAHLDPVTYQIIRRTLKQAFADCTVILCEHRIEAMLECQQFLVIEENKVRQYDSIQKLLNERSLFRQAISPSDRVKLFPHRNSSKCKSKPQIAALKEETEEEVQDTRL
Assay: Trans-Epithelial Current Clamp (TECC) assay using primary human bronchial epithelial cells
Format: cell-based
Conditions: maximum percent activity relative to positive control (co-corrector 0.15 μM + potentiator 0.45 μM = 100%)
parameter: Emax (% Dual)

{"columns": ["compound", "parameter", "unit_abbreviation", "reported_measurement"],
 "data": [
  ["COc1ccc(C)cc1C1(C(=O)NS(=O)(=O)c2cccc3nc(C)ccc23)CCC(c2ccccc2)O1 (stereo in doubt)", "Emax (% Dual)", "% Dual", 283],
  ["CCOc1ccc(C)cc1[C@@]1(C(=O)NS(=O)(=O)c2cccc3nc(C4CC4)ccc23)CCCO1", "Emax (% Dual)", "% Dual", 235],
  ["COc1ccc(C)cc1[C@@]1(C(=O)NS(=O)(=O)c2cccc3nc(C)ccc23)CC(C)(C)CO1", "Emax (% Dual)", "% Dual", 242]
]}
